Reported values: pKi for Furin (Homo sapiens), one per item.
Remember the convention: pKi equals -log10 of concentration in molar.

For orientation, consider the following solved cases.
>  <Substance>
H-GGGGGGTPRARRRKKRT-OH

>  <pKi>
7.18

$$$$
>  <Substance>
H-TPQRARRRKKRF-OH

>  <pKi>
7.42

$$$$
>  <Substance>
H-TPRARRRKKRV-NH2

>  <pKi>
7.10

$$$$
>  <Substance>
H-TPRARRRKKRN-OH

>  <pKi>
7.35

$$$$

Please look at the following substance next.
Hey, Furin (Homo sapiens) data for H-TPQRARRRKKRE-OH : pKi came out at 6.99

====

Target Under Test: Furin (Homo sapiens, UniProt P09958)
Sequence (P09958 whole entry): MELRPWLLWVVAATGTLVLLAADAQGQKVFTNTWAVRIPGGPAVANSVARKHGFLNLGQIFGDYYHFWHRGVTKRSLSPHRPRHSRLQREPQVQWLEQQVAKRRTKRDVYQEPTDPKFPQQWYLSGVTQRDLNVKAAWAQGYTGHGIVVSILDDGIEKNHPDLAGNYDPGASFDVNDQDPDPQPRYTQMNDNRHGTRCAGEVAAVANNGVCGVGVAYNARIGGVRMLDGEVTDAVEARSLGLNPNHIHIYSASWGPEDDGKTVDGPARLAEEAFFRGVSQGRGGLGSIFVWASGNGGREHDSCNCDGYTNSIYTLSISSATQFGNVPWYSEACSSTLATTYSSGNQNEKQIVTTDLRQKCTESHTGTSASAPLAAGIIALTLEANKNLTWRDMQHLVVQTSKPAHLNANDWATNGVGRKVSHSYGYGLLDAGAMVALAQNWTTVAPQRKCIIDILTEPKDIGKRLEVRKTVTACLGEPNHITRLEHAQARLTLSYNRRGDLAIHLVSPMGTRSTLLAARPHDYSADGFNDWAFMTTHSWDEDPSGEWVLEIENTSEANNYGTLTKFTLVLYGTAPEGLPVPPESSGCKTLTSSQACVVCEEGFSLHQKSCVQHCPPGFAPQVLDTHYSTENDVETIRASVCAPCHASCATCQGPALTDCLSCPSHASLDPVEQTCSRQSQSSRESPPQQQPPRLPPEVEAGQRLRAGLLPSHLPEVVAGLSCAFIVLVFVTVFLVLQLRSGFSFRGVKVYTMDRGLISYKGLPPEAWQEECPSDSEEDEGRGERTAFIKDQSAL
Here the recorded Ki is given for each entry.

For orientation, consider the following solved cases.
>  <Substance>
H-TPREAARKKRV-OH

>  <Target Under Test>
Furin (Homo sapiens, UniProt P09958)

>  <Measurement Label>
Ki

>  <Reported Result>
> 100 nM

$$$$
>  <Substance>
H-TPRRRRRKKRG-NH2

>  <Target Under Test>
Furin (Homo sapiens, UniProt P09958)

>  <Measurement Label>
Ki

>  <Reported Result>
> 100 nM

$$$$
>  <Substance>
H-TPREARRKKRV-OH

>  <Target Under Test>
Furin (Homo sapiens, UniProt P09958)

>  <Measurement Label>
Ki

>  <Reported Result>
> 100 nM

$$$$
>  <Substance>
H-TPREAAAKKRV-OH

>  <Target Under Test>
Furin (Homo sapiens, UniProt P09958)

>  <Measurement Label>
Ki

>  <Reported Result>
> 100 nM

$$$$
>  <Substance>
H-GGGTPRARRRKKRF-OH

>  <Target Under Test>
Furin (Homo sapiens, UniProt P09958)

>  <Measurement Label>
Ki

>  <Reported Result>
67 nM

$$$$

Hey, Furin (Homo sapiens, UniProt P09958) data for H-TPRTRRRKKRG-OH : Ki came out at > 100 nM

Hey, Furin (Homo sapiens, UniProt P09958) data for H-TPRMRRRKKRG-NH2 : Ki came out at > 100 nM

Hey, Furin (Homo sapiens, UniProt P09958) data for H-APRERRRKKRV-OH : Ki came out at > 100 nM

Hey, Furin (Homo sapiens, UniProt P09958) data for H-TPRARRRKKRW-NH2 : Ki came out at 59 nM

Hey, Furin (Homo sapiens, UniProt P09958) data for H-GGGGGGTPRARRRKKRY-OH : Ki came out at 54 nM

Hey, Furin (Homo sapiens, UniProt P09958) data for H-TPQRARRRKKRD-OH : Ki came out at 50 nM

Hey, Furin (Homo sapiens, UniProt P09958) data for H-TPQRHRRRKKRG-OH : Ki came out at > 100 nM

====

Reported values: pKi for Furin (Homo sapiens, UniProt P09958), one per item.
pKi: −log10 of the molar value.

>  <Substance>
H-TPRYRRRKKRG-NH2

>  <pKi>
< 7.00

$$$$
>  <Substance>
H-TPRARRRKKRQ-NH2

>  <pKi>
7.33

$$$$

Hey, Furin (Homo sapiens, UniProt P09958) data for H-TPRARRRKKRS-NH2 : pKi came out at < 7.00
